B1: ZNF649 (parent)
chain: DECEKAYFYMSCLVKHKRIHSREK

Variants of: B1
Experiment Summary: protein stability index of a GFP-peptide fusion (GPS, HEK-293T) (PSI 1-6); higher = more stable;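 note: lentivirally expressed fusions sorted by FACS into six bins by GFP to DsRed ratio, PSI derived from sequencing read proportions per bin multiplied by bin number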
Reported Conditions: c terminus: a fixed tail appended
Entries and their measured protein stability index follow.
I only need the number, thanks.

Solved entries (count: 4):
[
  {
    "Mutation Descriptor": "K15L",
    "Observed Value": 2.15
  },
  {
    "Mutation Descriptor": "S11A",
    "Observed Value": 2.07
  },
  {
    "Mutation Descriptor": "K5M",
    "Observed Value": 2.34
  },
  {
    "Mutation Descriptor": "S11F",
    "Observed Value": 1.66
  }
]

Per the record, `E2F` has protein stability index of 2.82

Per the record, `Y7H` has protein stability index of 3.35

Per the record, `C12V` has protein stability index of 2.42
